The measured values listed here are drawn from ChEMBL document CHEMBL3085685.

System: Trypanosoma cruzi
experimental.protocol: Trypanocidal activity against bloodstream trypomastigote stage of Trypanosoma cruzi Y infected in BALB/c mouse assessed as reduction of survival rate at 10 mg/kg/day, ip qd administered for 5 days measured daily until day 30 post-infection
Assay type: functional, organism-based
Calls of active or inactive are those of the source. The calls are words filed in the database; no cut-off is given here.
One label from this list, please: 1 (active), -1 (inactive)

Would you please look over these solved cases?
1. O=[N+]([O-])c1ccc(S(=O)(=O)Nc2cnccn2)cc1
-1
2. O=S(=O)(Nc1ccc2c[nH]nc2c1)c1ccc(Cl)cc1
-1
3. O=S(=O)(Nc1ccc2cn[nH]c2c1)c1ccc(F)cc1
-1

Now, please, on to the next molecule.
Assay result, entry O=S(=O)(Nc1cccc2cnccc12)c1cccc2ccccc12 — outcome? 1
